measurement target: T1, cynomolgus monkey EL (cynomolgus monkey)
T1 construct: Heparin extract; also called cynomolgus EL; Cynomolgus EL
experiment summary: ELISA: antibody captured on anti-mouse IgG-Fc plate, EL heparin extract added, detection with biotin anti-C2-tag antibody and HRP-streptavidin, A450
Description: Assay buffer containing 15 μl of anti-EL antibody was added to anti-mouse IgG-Fc antibody-immobilized microtiter plate, and incubated for 2 hr. […] After washing the wells three times with 90 μL of washing buffer, 15 μL of TMB+—Substrate—Chromogen (DAKO) was added and incubated at room temperature for 30 min and then 15 μL of 0.05 M H2SO₄ was added and absorbance at 450 nm was measured (FIG. 3A to 3K).
observed property: EC50 (read off the curve)

| binder | EC50 (read off the curve) |
| --- | --- |
| 19E7 (antibody, mouse IgG2a, V domains shown, mouse IgG2a from hybridoma; also called 19E1(19E7)) VH: QVQLQQPGSVLVRPGASVKLSCKASGYTFTTYWMHWVKQRPGQGLEWIGEIHPYSGNNNNNEKFKGKATLTVDTSSSTAYVDLSRLTSEDSAVYYCARYDSNYVFAYWGQGTLVTVSA VL: QIVLTQSPAIMSASPGEGVTITCSASSSVSYMHWFQQKPGTSPKLWIYSTSNLASGVPARFSGSGSGTSYSLTISRMEAEDAATYYCQQRDSYLTFGSGTKLEVK | ~30 ng/mL |
| 13B3 (antibody, mouse IgG2a, V domains shown, mouse IgG2a from hybridoma; also called 13B3 (mouse mAb)) VH: EVQLQQSGPELLKPGASVKISCKASGYTFTEYTMHWVKQSHGKSLEWIGSINPYYGGTSYNEKFKDKATLTVDKSSNTAYMEFRSLTSEDCAVYYCARYGNYVGYFDYWGQGTTLTVSS VL: ENVLTQSPAIMSASLGEKVTMSCRASSSVHYMYWYQQKSDASPKLWIYYTSNLAPGVPDRFSGSGSGNSYSLTISSMEGEDAATYYCQQFTSSPYTFGGGTKLEIK | ~10 ng/mL |

Next up:
Looking for the measured EC50 (read off the curve) of 14E1 (antibody, mouse IgG1, V domains shown, mouse IgG1 from hybridoma) VH: QVQLQQSGAELVKPGASVRLSCKASGYTFTKYTIHWVKQRSGQGLEWIGWFYPGSDSIKYNEKFKDKATLTADKSSRTVYMELSRLTSEDSAVYFCARHEEYTNSLAYWGQGTLVTVSA VL: DIQMTQTTSSLSASLGDRVTISCRASQDISNYLNWYQQQPDGTVKLLIYYTSRLHSGVPSRFSGSGSGTDYSLTISNLEQEDIATYFCQQGYTLPWTFGGGTNLEIK , can you help? ~10 ng/mL
